# test.details: NCI Yeast Anticancer Drug Screen. Data for the CLN2oe strain (AID 163);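 note: 0% = growth of vehicle-only control cultures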
# assay.context: S. cerevisiae CLN2oe strain, at 1.2 µM, active compounds read high
This is part of a sample that, as a whole, favours compounds with a hit. Of some 79,000 tested, about 15% had one in any assay.
quantity.measured: growth inhibition (%)
Please state the figure in %; there is no need to write the unit.

Value of measured growth inhibition for the entry O=[N+]([O-])c1cc(S(=O)(=O)F)ccc1Cl : 26

Others:
Query C[C@]12CCC(=O)C=C1CC[C@@H]1C2CC[C@@]2(C)C1CC[C@@H]2OC(=O)C12OC1CCC2=O (stereo partly specified) yields growth inhibition of 10

response.value for C=CC[N+]12CN3CN(CN(C3)C1)C2 (field: growth inhibition) = -24

Documented growth inhibition of CC1(C)N=C(N)N=C(N)N1c1cccc(N)c1.[Sn] : -10

According to the records, this compound Cc1c2ccccc2cc2ccccc12 displays growth inhibition of 9

The reported value for BrCC[N+]12CC[N+](CCBr)(CC1)C2 in terms of growth inhibition is 1

Sourced from PubChem BioAssay (NCI)
